biological target: Kelch-like ECH-associated protein 1 (Homo sapiens) (UniProt Q14145); assay: disruptors of Keap1/Nrf2 protein interaction – biochemical, fluorescence polarization, dry powder, set 3, dose response (AID 651806); conditions: Keap1 Kelch/FITC-Nrf2 peptide fluorescence polarization
Sequence (Q14145 whole entry, looked up): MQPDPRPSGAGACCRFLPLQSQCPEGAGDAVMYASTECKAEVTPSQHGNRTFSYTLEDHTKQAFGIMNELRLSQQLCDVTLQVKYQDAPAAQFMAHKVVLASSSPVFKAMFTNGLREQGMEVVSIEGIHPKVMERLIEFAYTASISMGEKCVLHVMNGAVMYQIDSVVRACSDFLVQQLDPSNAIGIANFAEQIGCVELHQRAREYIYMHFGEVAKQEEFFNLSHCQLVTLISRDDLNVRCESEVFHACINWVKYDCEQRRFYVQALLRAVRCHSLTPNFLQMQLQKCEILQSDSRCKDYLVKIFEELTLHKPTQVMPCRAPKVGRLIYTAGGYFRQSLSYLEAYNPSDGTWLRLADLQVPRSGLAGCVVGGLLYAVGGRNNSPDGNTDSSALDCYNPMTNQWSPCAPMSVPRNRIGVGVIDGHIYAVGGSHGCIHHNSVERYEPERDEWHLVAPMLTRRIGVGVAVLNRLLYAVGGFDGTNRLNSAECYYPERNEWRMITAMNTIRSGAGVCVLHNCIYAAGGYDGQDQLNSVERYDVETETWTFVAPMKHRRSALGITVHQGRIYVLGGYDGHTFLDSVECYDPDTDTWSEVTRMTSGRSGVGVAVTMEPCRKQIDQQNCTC
Activity calls are given as the source filed them.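 Rule for the calls: active = AC50 no higher than twice the top valid tested dose, with signal falling as dose rises; inconclusive = flat fit with partial inhibition, or a poor-quality fit; inactive = the rest, plus effects in the rising direction.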
Permitted responses: active, inactive

Take a look at these entries with their results.
>>> class_assignment("CC(C)OC(=O)C(C(=O)C(F)(F)F)c1cc(NS(=O)(=O)c2ccccc2)c2ccccc2c1O (stereo not given)")
"inactive"
>>> class_assignment("Cc1ccc(S(=O)(=O)NC(=O)[C@@H]2c3ccccc3CCN2C(=O)[C@@H]2CCCC[C@@H]2C(=O)O)cc1")
"inactive"
>>> class_assignment("O=C(O)C1CCCCC1C(=O)N1CCc2ccccc2C1CN1C(=O)Cc2ccccc2C1=O (stereo not given)")
"inactive"
>>> class_assignment("Cc1cc(C)c(S(=O)(=O)Nc2cc(C(C(=O)OC(C)C)C(=O)C(F)(F)F)c(O)c3ccccc23)c(C)c1 (stereo not given)")
"active"

For O=C(O)C1CCCCC1C(=O)N1CCc2ccccc2C1CN1C(=O)c2ccccc2S1(=O)=O (stereo not given) , which call appears in the assay record?
inactive
